A collection of binders and their measured koff
# ASSAYED TARGET: canine FcRn/B2M protein complex (canine FcRn ECD with C-terminal poly-His tag and canine Beta-2-Microglobulin) (canine)
# PROTOCOL: SPR Biacore 8K, pH 6.0, 25 C; Fc captured by SASA tag on BSA chip, FcRn/B2M 400 nM as analyte
Reply numerically in s⁻¹, unit not repeated.

These solved cases illustrate the format of a correct answer.
# BINDER, UNIT ABBREVIATION, koff
data = [
    ("variant canine IgG-B Fc polypeptide Y0F (Leu24Tyr, Asn208Phe) (protein, not shown: small tags and cut ends) CPAPEMLGGPSVFIFPPKPKDTLYIARTPEVTCVVVDLDPEDPEVQISWFVDGKQMQTAKTQPREEQFNGTYRVVSVLPIGHQDWLKGKQFTCKVNNKALPSPIERTISKARGQAHQPSVYVLPPSREELSKNTVSLTCLIKDFFPPDIDVEWQSNGQQEPESKYRTTPPQLDEDGSYFLYSKLSVDKSRWQRGDTFICAVMHEALHFHYTQESLSHSPGK", "s⁻¹", 0.000221),
    ("variant canine IgG-B Fc polypeptide 0YH (Gln83Tyr, Asn208His) (protein, not shown: small tags and cut ends) CPAPEMLGGPSVFIFPPKPKDTLLIARTPEVTCVVVDLDPEDPEVQISWFVDGKQMQTAKTQPREEQFNGTYRVVSVLPIGHYDWLKGKQFTCKVNNKALPSPIERTISKARGQAHQPSVYVLPPSREELSKNTVSLTCLIKDFFPPDIDVEWQSNGQQEPESKYRTTPPQLDEDGSYFLYSKLSVDKSRWQRGDTFICAVMHEALHHHYTQESLSHSPGK", "s⁻¹", 0.00791),
]

response.value for variant canine IgG-B Fc polypeptide YYH (Leu24Tyr, Gln83Tyr, Asn208His) (protein, not shown: small tags and cut ends) CPAPEMLGGPSVFIFPPKPKDTLYIARTPEVTCVVVDLDPEDPEVQISWFVDGKQMQTAKTQPREEQFNGTYRVVSVLPIGHYDWLKGKQFTCKVNNKALPSPIERTISKARGQAHQPSVYVLPPSREELSKNTVSLTCLIKDFFPPDIDVEWQSNGQQEPESKYRTTPPQLDEDGSYFLYSKLSVDKSRWQRGDTFICAVMHEALHHHYTQESLSHSPGK (field: koff) = 0.000612

Measured values drawn from patent US20210388053A1 for this set.
